The origin of these recorded values is PubChem BioAssay AID651739.

# inhibition annotations
Assay text: blockers of Trypanosoma cruzi growth in host cells – cell-based, NIH3T3 host, beta-gal parasite, luminescence, cherry-pick, confirmation (AID 651739)
Measurement context: T. cruzi beta-gal in NIH3T3, GalScreen luminescence, 90 h; at 8.35 µM; active compounds read high
Out of some 5,600 compounds screened, about 4,100 (73%) were called active. Inconclusive results (about 4%) are left out. So high a share suggests a set chosen from earlier hits. The list is a sample of the results.
The response must be a number in % with no trailing unit.

As a guide, the following entries are already answered.
> print(dat)
                      smiles.representation  observation.type  experimental.value
1  COc1ccc(C#Cc2cnc3c(c2)C(=O)N([C@@H](C)CO)C[C@H](C)[C@@H](CN(C)C(C)=O)O3)cc1        inhibition                19.7
2  C[C@@H]1CN([C@H](C)CO)C(=O)c2cc(C#Cc3ccccn3)cnc2O[C@H]1CN(C)Cc1ccccc1        inhibition                 102
3  COCC(=O)N(C)C[C@@H]1Oc2ncc(C#Cc3ccccc3OC)cc2C(=O)N([C@@H](C)CO)C[C@H]1C        inhibition                 109

Proceed to the following item.
Item: C[C@@H]1CN([C@@H](C)CO)C(=O)c2cc(NC(=O)Nc3ccc4c(c3)OCO4)ccc2O[C@@H]1CN(C)Cc1ccc(Oc2ccccc2)cc1 | inhibition: 101
